assay_protocol: Equilibrium solubility in at pH 7.4
Format: physicochemical
cond: buffer
measure_name: solubility thermodynamic (µg/mL)
Report the value in µg/mL with no unit label.

Q: Fill in: solubility thermodynamic of FC(F)(F)c1ccc(Nc2ccnc3nc(-c4ncccc4C(F)(F)F)ccc23)nc1 is ___
Result: 2

---

tested_target: Transient receptor potential cation channel subfamily V member 1 (Rattus norvegicus, UniProt O35433)
Sequence (O35433 whole entry): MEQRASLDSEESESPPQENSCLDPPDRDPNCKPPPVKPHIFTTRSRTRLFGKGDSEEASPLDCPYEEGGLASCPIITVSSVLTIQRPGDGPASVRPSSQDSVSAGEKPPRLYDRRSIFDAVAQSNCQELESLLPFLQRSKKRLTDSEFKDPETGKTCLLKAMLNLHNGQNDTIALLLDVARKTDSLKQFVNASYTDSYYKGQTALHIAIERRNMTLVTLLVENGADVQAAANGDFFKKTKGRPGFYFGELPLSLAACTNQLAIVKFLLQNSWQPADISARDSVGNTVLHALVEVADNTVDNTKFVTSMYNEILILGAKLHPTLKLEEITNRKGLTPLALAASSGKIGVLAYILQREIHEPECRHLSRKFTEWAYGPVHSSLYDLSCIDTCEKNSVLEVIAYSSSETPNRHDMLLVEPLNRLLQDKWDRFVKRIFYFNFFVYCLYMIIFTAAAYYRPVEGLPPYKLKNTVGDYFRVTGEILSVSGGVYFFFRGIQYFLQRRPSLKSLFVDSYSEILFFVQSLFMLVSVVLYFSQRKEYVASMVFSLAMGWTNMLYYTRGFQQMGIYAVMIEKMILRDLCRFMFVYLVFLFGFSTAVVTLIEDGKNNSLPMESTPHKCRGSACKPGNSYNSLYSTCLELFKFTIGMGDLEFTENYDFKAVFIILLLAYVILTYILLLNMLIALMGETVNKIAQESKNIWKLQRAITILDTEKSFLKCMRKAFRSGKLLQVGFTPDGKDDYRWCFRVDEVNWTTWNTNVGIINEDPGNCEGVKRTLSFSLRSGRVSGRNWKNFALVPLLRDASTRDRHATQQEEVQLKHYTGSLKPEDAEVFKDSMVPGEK
assay_protocol: Inhibition of rat TRPV1 at pH 5 to 5.5
measure_name: pIC50
The quantity pIC50 is defined as the negative base-10 logarithm of the molar concentration.

Q: Fill in: pIC50 of FC(F)(F)c1ccc(Nc2ccnc3nc(-c4ncccc4C(F)(F)F)ccc23)nc1 is ___
Result: 8.49
